Data provenance: ChEMBL document CHEMBL4024774

For each entry below, report its Ki value.
Molecular target: Sodium-dependent dopamine transporter (Rattus norvegicus, UniProt P23977)
Sequence (P23977 whole entry): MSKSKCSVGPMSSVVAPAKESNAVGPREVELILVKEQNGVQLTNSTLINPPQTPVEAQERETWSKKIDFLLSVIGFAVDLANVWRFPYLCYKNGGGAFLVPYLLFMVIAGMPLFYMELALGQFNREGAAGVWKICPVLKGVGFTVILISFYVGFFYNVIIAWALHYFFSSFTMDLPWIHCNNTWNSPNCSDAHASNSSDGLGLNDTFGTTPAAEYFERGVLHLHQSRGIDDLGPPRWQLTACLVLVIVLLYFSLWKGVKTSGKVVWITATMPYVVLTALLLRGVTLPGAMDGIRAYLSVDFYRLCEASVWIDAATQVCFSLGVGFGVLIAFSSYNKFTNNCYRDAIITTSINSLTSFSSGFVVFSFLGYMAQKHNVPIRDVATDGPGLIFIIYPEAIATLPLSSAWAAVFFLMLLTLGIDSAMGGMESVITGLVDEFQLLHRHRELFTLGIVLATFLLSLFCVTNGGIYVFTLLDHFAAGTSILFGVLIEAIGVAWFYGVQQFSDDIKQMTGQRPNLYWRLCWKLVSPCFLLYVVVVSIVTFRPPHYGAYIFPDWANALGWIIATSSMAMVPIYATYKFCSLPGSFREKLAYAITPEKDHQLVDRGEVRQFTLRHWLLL

Below: 4 molecules and their reported Ki.
{"Molecule": "Fc1ccc(C(OC2CC3CCC(C2)N3CC2CC2)c2ccc(F)cc2)cc1 (stereo not drawn)", "Ki": "24.6 nM"}
{"Molecule": "CCOC(=O)[C@@H]1C2CCC(C[C@@H]1OC(c1ccc(F)cc1)c1ccc(F)cc1)N2C[C@H](N)C(C)C (mixture of isomers)", "Ki": "53.8 nM"}
{"Molecule": "CN1C2CCC1[C@@H](c1cc(-c3ccc(F)cc3)no1)[C@@H](OC(c1ccc(F)cc1)c1ccc(F)cc1)C2 (mixture of isomers)", "Ki": "69.2 nM"}
{"Molecule": "CN1C2CCC1[C@@H](c1cc(-c3ccc(Cl)cc3)no1)[C@@H](OC(c1ccc(F)cc1)c1ccc(F)cc1)C2 (mixture of isomers)", "Ki": "66.6 nM"}

Okay, here is my list. What is Ki for each of these?
1. Fc1ccc(C(NC2CC3CCC(C2)N3CCN2CCCCC2)c2ccc(F)cc2)cc1 (stereo not drawn)
2. Fc1ccc(C(OC2CC3CCC(C2)N3CCN2CCCCC2)c2ccc(F)cc2)cc1 (stereo not drawn)
3. CN(C)CCN1C2CCC1CC(NC(c1ccc(F)cc1)c1ccc(F)cc1)C2 (stereo not drawn)
4. Cc1ccc(-c2cc([C@@H]3C4CCC(C[C@@H]3OC(c3ccc(F)cc3)c3ccc(F)cc3)N4C)on2)cc1 (mixture of isomers)

Output line:
["10.6 nM", "13.2 nM", "14.3 nM", "93.5 nM"]
